For each of the molecules below, state its pIC50.
target: High affinity cGMP-specific 3',5'-cyclic phosphodiesterase 9A (Homo sapiens, UniProt O76083)
Sequence (O76083 whole entry): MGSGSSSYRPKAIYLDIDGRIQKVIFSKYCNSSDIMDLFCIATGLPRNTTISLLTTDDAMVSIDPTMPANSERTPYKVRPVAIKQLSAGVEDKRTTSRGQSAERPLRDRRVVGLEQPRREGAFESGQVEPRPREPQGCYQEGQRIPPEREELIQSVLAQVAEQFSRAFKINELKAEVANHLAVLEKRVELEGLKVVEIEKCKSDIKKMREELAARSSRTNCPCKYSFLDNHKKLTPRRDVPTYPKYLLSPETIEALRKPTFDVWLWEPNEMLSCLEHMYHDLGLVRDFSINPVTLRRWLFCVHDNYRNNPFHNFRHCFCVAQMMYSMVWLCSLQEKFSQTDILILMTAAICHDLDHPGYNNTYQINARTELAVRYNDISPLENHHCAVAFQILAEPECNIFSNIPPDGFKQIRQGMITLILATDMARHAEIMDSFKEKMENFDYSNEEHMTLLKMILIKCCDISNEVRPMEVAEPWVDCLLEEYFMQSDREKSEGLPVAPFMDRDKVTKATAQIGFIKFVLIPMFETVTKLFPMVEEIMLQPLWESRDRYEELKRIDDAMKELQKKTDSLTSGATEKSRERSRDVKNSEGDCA
procedure.text: Inhibition of human cloned PDE9A2 expressed in Escherichia coli BL21 by liquid scintillation counting
pIC50: −log10 of the molar value.

Data request: Given the entry CC(C)CC(=O)c1ccc(OC(F)F)c(OC2CCOC2)c1 (centres undefined) , report its measured pIC50.
Data returned: < 4.30

Data request: Which pIC50 value is on record for COc1cc(C(CC(C)=O)c2cnc3ccccc3c2)ccc1Oc1ccccn1 (centres undefined) ?
Data returned: < 4.30

Data request: Item under review: CCCC(=O)c1ccc(OC)c(OC2CCOCC2)c1 . Reported pIC50?
Data returned: < 4.30

Data request: If you can, please state the reported pIC50 value of CCCC(O)(c1ccc(Oc2ccccn2)c(OC)c1)c1cnc2ccccc2c1 (centres undefined) .
Data returned: < 4.30

###

target: UniProt:Q08499
Sequence (Q08499 whole entry): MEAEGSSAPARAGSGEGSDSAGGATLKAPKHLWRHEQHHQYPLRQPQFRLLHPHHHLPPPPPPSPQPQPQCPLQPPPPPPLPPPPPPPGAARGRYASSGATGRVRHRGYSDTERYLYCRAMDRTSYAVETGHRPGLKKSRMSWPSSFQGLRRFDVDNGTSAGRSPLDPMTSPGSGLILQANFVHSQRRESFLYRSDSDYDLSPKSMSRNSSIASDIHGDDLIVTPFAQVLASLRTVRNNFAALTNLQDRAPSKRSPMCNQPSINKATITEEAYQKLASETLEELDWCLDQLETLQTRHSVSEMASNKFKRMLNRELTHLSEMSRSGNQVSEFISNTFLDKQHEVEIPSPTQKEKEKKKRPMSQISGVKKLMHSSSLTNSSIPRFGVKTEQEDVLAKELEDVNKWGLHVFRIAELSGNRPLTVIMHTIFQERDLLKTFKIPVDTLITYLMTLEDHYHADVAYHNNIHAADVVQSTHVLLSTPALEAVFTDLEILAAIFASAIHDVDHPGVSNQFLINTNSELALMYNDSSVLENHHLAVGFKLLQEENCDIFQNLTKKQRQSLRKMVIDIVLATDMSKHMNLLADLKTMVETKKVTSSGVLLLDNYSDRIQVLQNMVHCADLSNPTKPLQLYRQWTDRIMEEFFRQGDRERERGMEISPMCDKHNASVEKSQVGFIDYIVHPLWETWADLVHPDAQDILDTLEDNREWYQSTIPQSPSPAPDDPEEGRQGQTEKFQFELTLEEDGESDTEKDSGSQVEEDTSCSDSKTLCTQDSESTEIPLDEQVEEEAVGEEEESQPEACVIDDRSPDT
Could you please mark true (1) for values of IC50 below 3 µM and false (0) for values at or above it?

Data request: Please let me know if COc1cc(C(CC(C)=O)c2cccnc2)ccc1O (stereo unspecified) shows IC50 below 3 µM.
Data returned: false (0)

Data request: A record lists CCCCC(=O)c1ccc(OC2CCN(C(=O)OC(C)(C)C)CC2)c(OC)c1 . Is its IC50 below 3 µM?
Data returned: false (0)

Data request: Please state whether IC50 is below 3 µM for CCCC(=O)c1ccc(OC(F)F)c(Oc2ccccn2)c1
Data returned: false (0)

Data request: A record lists O=C(CCCc1ccccc1)c1ccc(OC(F)F)c(OC(F)F)c1 . Is its IC50 below 3 µM?
Data returned: false (0)

Data request: Given CCCC(=O)c1ccc(OC2CCN(C(=O)OC(C)(C)C)CC2)c(OC)c1 , is recorded IC50 strictly lower than 3 µM?
Data returned: false (0)

Data request: For this molecule, is IC50 lower than 3 µM? CCCCC(=O)c1ccc(OC)c(OC2CCNCC2)c1
Data returned: false (0)

Data request: Input O=C(CCc1ccccc1)c1ccc(OC(F)F)c(OC(F)F)c1 ; condition: IC50 strictly below 3 µM. Does it hold?
Data returned: true (1)

Data request: Decide: IC50 of CCCC(=O)c1ccc(OC)c(OC2CCOCC2)c1 strictly below 3 µM?
Data returned: false (0)

Data request: Regarding O=C(CC1CCCCC1)c1ccc(OC(F)F)c(OC(F)F)c1 , kindly confirm whether its IC50 is beneath 3 µM.
Data returned: false (0)

Data request: State whether 3 µM exceeds IC50 recorded for O=C(CCC1CCCCC1)c1ccc(OC(F)F)c(OC2CCOC2)c1 (stereo unspecified) .
Data returned: true (1)

Data request: Hello, I'm reviewing records and need to know if IC50 of COc1ccc(C(=O)CCC2CCCCC2)cc1OC1CCOC1 (stereo unspecified) is below 3 µM. Could you check?
Data returned: true (1)

Data request: State whether 3 µM exceeds IC50 recorded for CCCC(=O)c1ccc(OC2CCOC2)c(OC)c1 (stereo unspecified) .
Data returned: false (0)

Data request: Does this molecule meet the criterion IC50 < 3 µM? CCCC(=O)c1ccc(OC(F)F)c(OC2CCOCC2)c1
Data returned: true (1)

Data request: Hello, I'm reviewing records and need to know if IC50 of CCCCC(=O)c1ccc(OC)c(OC2CCOC2)c1 (stereo unspecified) is below 3 µM. Could you check?
Data returned: true (1)

Data request: Regarding COc1ccc(C(=O)CC2CCCCC2)cc1OC1CCOC1 (stereo unspecified) , kindly confirm whether its IC50 is beneath 3 µM.
Data returned: true (1)

Data request: I'd appreciate it if you could check whether COc1ccc(C(=O)CCCc2ccccc2)cc1OC1CCOC1 (stereo unspecified) has IC50 smaller than 3 µM.
Data returned: true (1)

Data request: Please let me know if O=C(CCc1ccccc1)c1ccc(OC(F)F)c(OC2CCOC2)c1 (stereo unspecified) shows IC50 below 3 µM.
Data returned: true (1)

Data request: Strictly below 3 µM: is that where IC50 of CCCCC(O)c1ccc(OC)c(OC2CCOC2)c1 (stereo unspecified) sits?
Data returned: false (0)

Data request: Please state whether IC50 is below 3 µM for COc1ccc(C(=O)CCc2ccccc2)cc1OC1CCOC1 (stereo unspecified)
Data returned: true (1)

Data request: Confirm or reject: IC50 of CCCC(=O)c1ccc(OC2CCOCC2)c(OC)c1 lies strictly below 3 µM
Data returned: false (0)

Data request: Hello, I'm reviewing records and need to know if IC50 of CCCCC(c1cccnc1)c1ccc(Oc2ccccn2)c(OC)c1 (stereo unspecified) is below 3 µM. Could you check?
Data returned: false (0)

Data request: API: query returns whether the molecule falls strictly under 3 µM in IC50. Query: O=C(CCCc1ccccc1)c1ccc(OC(F)F)c(OC2CCOC2)c1 (stereo unspecified)
Data returned: true (1)

Data request: Hi there! Is IC50 for CCCCC(=O)c1ccc(OC(F)F)c(OC2CCOC2)c1 (stereo unspecified) below 3 µM, do you know?
Data returned: true (1)

Data request: Please determine if COc1ccc(C(=O)c2cnc3ccccc3c2)cc1OC1CCOCC1 is below 3 µM in terms of IC50.
Data returned: false (0)

Data request: Is IC50 of CC(C)CC(=O)c1ccc(OC(F)F)c(OC2CCCC2)c1 strictly below 3 µM?
Data returned: true (1)

Data request: Dear reviewer, please state whether O=C(CC1CCCCC1)c1ccc(OC(F)F)c(OC2CCOC2)c1 (stereo unspecified) has IC50 strictly beneath 3 µM.
Data returned: true (1)

###

pIC50: −log10 of the molar value.
measured.metric: pIC50

Data request: Provide the documented pIC50 with cGMP-specific 3',5'-cyclic phosphodiesterase (Homo sapiens) as the system for CCCC(=O)c1ccc(OC)c(OC2CCOCC2)c1
Data returned: < 4.30

Data request: Which pIC50 is reported with cGMP-specific 3',5'-cyclic phosphodiesterase (Homo sapiens) for this entry: COc1cc(C(CC(C)=O)c2cnc3ccccc3c2)ccc1Oc1ccccn1 (centres undefined) ?
Data returned: < 4.30

Data request: What measured pIC50 is associated with CCCC(O)(c1ccc(Oc2ccccn2)c(OC)c1)c1cnc2ccccc2c1 (centres undefined) on cGMP-specific 3',5'-cyclic phosphodiesterase (Homo sapiens)?
Data returned: 4.40

Data request: Recorded pIC50 for CC(C)CC(=O)c1ccc(OC(F)F)c(OC2CCOC2)c1 (centres undefined) with cGMP-specific 3',5'-cyclic phosphodiesterase (Homo sapiens), please?
Data returned: < 4.30

###

measured.metric: IC50

Data request: Please tell me: IC50 of CC(C)CC(=O)c1ccc(OC(F)F)c(OC2CCOC2)c1 (centres undefined) , system High affinity 3',5'-cyclic-AMP phosphodiesterase 7A (Homo sapiens)?
Data returned: > 50 µM

Data request: Test system High affinity 3',5'-cyclic-AMP phosphodiesterase 7A (Homo sapiens); read-out IC50; what value for CCCC(O)(c1ccc(Oc2ccccn2)c(OC)c1)c1cnc2ccccc2c1 (centres undefined) ?
Data returned: 17 µM

Data request: Lookup: IC50 / High affinity 3',5'-cyclic-AMP phosphodiesterase 7A (Homo sapiens) / CCCC(=O)c1ccc(OC)c(OC2CCOCC2)c1
Data returned: > 50 µM

Data request: Query for High affinity 3',5'-cyclic-AMP phosphodiesterase 7A (Homo sapiens): what IC50 does the record show for COc1cc(C(CC(C)=O)c2cnc3ccccc3c2)ccc1Oc1ccccn1 (centres undefined) ?
Data returned: > 50 µM

###

Consider the following pIC50 values measured on UniProt:Q08499.
Conceptually, pIC50 converts a concentration in mol/L into minus its log10.

Data request: What value of pIC50 has been recorded for this entry: CCCC(O)(c1ccc(Oc2ccccn2)c(OC)c1)c1cnc2ccccc2c1 (configuration not stated)
Data returned: 5.22

Data request: So what's the measured pIC50 for this one? CCCCC(=O)c1ccc(OC)c(OC2CCOCC2)c1
Data returned: 6.14

Data request: Tell me the measured pIC50 of COc1ccc(C(=O)CCC(C)C)cc1OC1CCOC1 (configuration not stated) , please.
Data returned: 6.42

Data request: Find the recorded pIC50 belonging to CC(C)(C)C(=O)c1ccc(OC(F)F)c(OC2CCOC2)c1 (configuration not stated) and report it.
Data returned: 6.39

Data request: Which pIC50 is reported for this molecule? COc1ccc(C(=O)Nc2ccccc2Cl)cc1OC
Data returned: 6.19

Data request: What value of pIC50 has been recorded for this entry: CCCC(=O)c1ccc(OC)c(OC2CCOC2)c1 (configuration not stated)
Data returned: 6.37

Data request: I have this molecule here, COc1ccc(C(=O)Nc2c(F)cccc2F)cc1OC1CCCC1 , and I need its recorded pIC50.
Data returned: 7.15

Data request: Which pIC50 is reported for this molecule? CCCCC(=O)c1ccc(OC(F)F)c(OC2CCN(C(=O)OC(C)(C)C)CC2)c1
Data returned: 5.66

Data request: What does the data say about its pIC50? Entry: COc1cc(C(CC(C)=O)c2cnc3ccccc3c2)ccc1Oc1ccccn1 (configuration not stated)
Data returned: 5.22

Data request: I would be grateful if you could share the reported pIC50 for COc1ccc(C(=O)Nc2ccccc2C(F)(F)F)cc1OC1CCCC1 .
Data returned: 5.51

Data request: // lookup pIC50 for CCCCC(=O)c1ccc(OC2CCOCC2)c(OC)c1
Data returned: 4.15

Data request: Form field: reported pIC50 of CCCCC(=O)c1ccc(OC2CCOC2)c(OC)c1 (configuration not stated)
Data returned: 4.00

FYI, the data here is from ChEMBL document CHEMBL1151716.
